Target: IR-A (Homo sapiens, UniProt P06213)
Assay: In vitro activity at IR-A relative to native insulin
Format: cell-based
Conditions: Table 19
IR-A values, listed per item
Report the value in % with no unit label.

In the examples that follow, each entry is paired with its recorded IR-A.
# Substance, IR-A, %
data = [
    ("B1, A14-10K B^1(H5, 10Y16L17R29)29: A^1(H8K14N18, 21) (chain 1 GPEHLCGAHLVDALYLVCGDRGFYFNKR; chain 2 GIVDECCHRSCDLKRLENYCN) [di-10K-TC]", 6.4),
    ("B^1(H5, 10Y16L17R29)30-C^1des9-12-A^1(H8, N18, 21) (GPEHLCGAHLVDALYLVCGDRGFYFNKRTGYGSSSRRGIVDECCHRSCDLRRLENYCN) [MIU-43]", 97.5),
    ("B1, A14-10K B^1(H5, 10Y16L17R29)30-C^1des9-12-A^1(H8, K14, N18, 21) (GPEHLCGAHLVDALYLVCGDRGFYFNKRTGYGSSSRRGIVDECCHRSCDLKRLENYCN) [MIU-79]", 1.7),
]

Now for a further substance.
Incoming: Would you mind telling me what IR-A value was observed for B^1(H5, 10Y16L17R29)30-C^1des9-12-A^1(H8, K14, N18, 21) (GPEHLCGAHLVDALYLVCGDRGFYFNKRTGYGSSSRRGIVDECCHRSCDLKRLENYCN) [DP8Mut3KA14] ?
Outgoing: 132.2

* * *

Biological target: IR-B (Homo sapiens, UniProt P06213)
Test: In vitro activity at IR-B relative to native insulin
Assay type: cell-based
Settings: Table 19
Observation type: IR-B
Write the quantity with the unit trailing the number.

In the examples that follow, each entry is paired with its recorded IR-B.
# Substance, Observed value
measured = [
    ("B1, A14-10K B^1(H5, 10Y16L17R29)30-C^1des9-12-A^1(H8, K14, N18, 21) (GPEHLCGAHLVDALYLVCGDRGFYFNKRTGYGSSSRRGIVDECCHRSCDLKRLENYCN) [MIU-79]", "0.2%"),
    ("B^1(H5, 10Y16L17R29)30-C^1des9-12-A^1(H8, K14, N18, 21) (GPEHLCGAHLVDALYLVCGDRGFYFNKRTGYGSSSRRGIVDECCHRSCDLKRLENYCN) [DP8Mut3KA14]", "12.6%"),
    ("B^1(H5, 10Y16L17R29)30-C^1des9-12-A^1(H8, N18, 21) (GPEHLCGAHLVDALYLVCGDRGFYFNKRTGYGSSSRRGIVDECCHRSCDLRRLENYCN) [MIU-43]", "16.7%"),
]

Now for a further substance.
Incoming: Would you mind telling me what IR-B value was observed for B1, A14-10K B^1(H5, 10Y16L17R29)29: A^1(H8K14N18, 21) (chain 1 GPEHLCGAHLVDALYLVCGDRGFYFNKR; chain 2 GIVDECCHRSCDLKRLENYCN) [di-10K-TC] ?
Outgoing: 2.1%

* * *

% Insulin Activity IGF-1 R values, listed per item
Target: IGF-1 R (Homo sapiens, UniProt P08069)
Assay: In vitro activity at IGF-1 R relative to native insulin
Format: cell-based
Details: Table 17

In the examples that follow, each entry is paired with its recorded % Insulin Activity IGF-1 R.
# Substance, % Insulin Activity IGF-1 R
measured = [
    ("B^1(H5,Y16,L17)25-C^1(K8)-A^1(N18,21) (GPEHLCGAELVDALYLVCGDRGFYGYGSSSRKAPQTGIVDECCFRSCDLRRLENYCN) [MIU-67, two 10K PEG chains, at the N-terminus and at position C8]", "<0.1%"),
    ("B^1(H5,Y16,L17)25-C^1(K8)-A^1(K14, N18,21) (GPEHLCGAELVDALYLVCGDRGFYGYGSSSRKAPQTGIVDECCFRSCDLKRLENYCN) [MIU-69, two 10K PEG chains, at the N-terminus and at amino acid A14]", "<0.1%"),
]

Incoming: Would you mind telling me what % Insulin Activity IGF-1 R value was observed for B^1(H5,Y16,L17, K22)25-C^1(K8)-A^1(N18,21) (GPEHLCGAELVDALYLVCGDKGFYGYGSSSRKAPQTGIVDECCFRSCDLRRLENYCN) [MIU-68, two 10K PEG chains, at the N-terminus and at amino acid B22] ?
Outgoing: <0.1%

Incoming: Would you mind telling me what % Insulin Activity IGF-1 R value was observed for B^1(H5,H10,Y16,L17)25-C^1-A^1(H8,N18,N21) (GPEHLCGAHLVDALYLVCGDRGFYGYGSSSRRAPQTGIVDECCHRSCDLRRLENYCN) [MIU-35] ?
Outgoing: 3.2%
